Procedure text: protein stability index of a GFP-peptide fusion (yeast GPS) (PSI 1-4); higher = more stable; sorted into four equal gates, so the index is relative within each strain
Condition: doa10∆
Assign class by protein stability index: not lower than 3 means y; lower than 3 means n.

Some solved entries appear below for comparison.
> print(dat)
                        chain  label.class
1    GQLGEMAKCLDNPDQGI [YCS4]            y
2    RETNDDIWRVAGKFELL [SNF2]            n
3  EVRGQVPVIESAGFETD [SNU114]            n
4   HDSILHSRILPKKALKV [RRP43]            n
5   HFPINVNIVEKDGAKFI [RPL9A]            n

Lookup: Is it the case that VTGFAEVGPWGSARTRW [FAS2] has protein stability index reaching or exceeding 3?
Found: n

Lookup: Is protein stability index for SKICLSHFSLDQFITSL [ITC1] at or above 3?
Found: n
